Biological target: HCV NS3 helicase NS3h_1b(con1) (Hepatitis C virus genotype 1b)
Construct: truncated C-terminally His-tagged NS3 proteins lacking the N-terminal protease, called NS3h; His-tag (C); made in house
Sequence (Q9WMX2 1192-1657): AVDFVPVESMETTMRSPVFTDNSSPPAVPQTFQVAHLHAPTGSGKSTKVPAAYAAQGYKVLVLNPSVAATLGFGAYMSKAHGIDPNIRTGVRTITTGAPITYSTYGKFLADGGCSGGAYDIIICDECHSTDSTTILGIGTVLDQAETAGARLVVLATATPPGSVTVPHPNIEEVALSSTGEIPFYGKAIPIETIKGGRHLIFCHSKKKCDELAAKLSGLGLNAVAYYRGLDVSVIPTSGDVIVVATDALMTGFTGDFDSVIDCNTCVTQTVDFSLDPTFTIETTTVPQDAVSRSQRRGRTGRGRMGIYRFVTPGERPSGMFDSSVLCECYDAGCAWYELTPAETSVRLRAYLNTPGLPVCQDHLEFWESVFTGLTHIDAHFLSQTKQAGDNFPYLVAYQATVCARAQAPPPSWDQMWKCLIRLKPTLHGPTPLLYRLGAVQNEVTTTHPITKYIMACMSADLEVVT
Assay: MBHA screen of NCI mechanistic set library at 20 μM (percent inhibition, compound interference)
Type: biochemical
Settings: compounds at 20 μM, MBHA with DNA substrate; calculated from Equation 1
Description: All molecular beacon-based helicase assays (MBHAs) were performed according to known methods (Belon & Frick (2008) supra; Belon & Frick (2009) supra). […] Fluorescence was read before ATP (F0) addition and 30 minutes after ATP was added to 1 mM (F30) using a Tecan Infinite M200 fluorescence microplate reader with excitation and emission wavelengths set to 643 and 670 nm, respectively. […]
Answer each item with its documented Inh. (%) (Inhibition).
Give bare numbers, in %.

In the examples that follow, each entry is paired with its recorded Inh. (%) (Inhibition).
Prompt: I am curious: what Inh. (%) (Inhibition) value has been reported for O=c1cnn(C2OC(CO)C(O)C2O)c(=S)[nH]1 (stereo not drawn) ?
Completion: 0.2

Prompt: Another molecule to check: "Nc1nncs1"
Completion: 5.9

Parameter requested: Inh. (%) (Inhibition). Apply to each item below.
1. COc1ccc2ccccc2c1C1OC(=O)c2ccccc21 (stereo not drawn)
2. CN(C)c1ccc(/C=c2/sc3nc(=O)c(-c4ccccc4NC(=O)C(F)(F)F)nn3c2=O)cc1

Completion:
1: −2.7; 2: −15.3

Parameter requested: Inh. (%) (Inhibition). Apply to each item below.
1. COc1cc([C@H]2c3cc4c(cc3C[C@@H]3COC(=O)[C@H]32)OCO4)cc(OC)c1OC
2. O=Cc1cc([N+](=O)[O-])no1
3. CCOC(=O)[C@H](CC(C)C)NC(=O)C(Cc1ccc(N(CCCl)CCCl)cc1)NC(C)=O (stereo partly drawn)
4. O=c1ncccn1C1OC(CO)C(O)C1F (stereo not drawn)
5. CCOC(OC1=C(C#N)CCC1)C(C)[Se]c1ccccc1 (stereo not drawn)

Completion:
1: 16.8; 2: −2.2; 3: 22.8; 4: −10.4; 5: −1.0

Parameter requested: Inh. (%) (Inhibition). Apply to each item below.
1. C[n+]1ccc(Nc2ccc(NC(=O)c3ccc(Nc4cc[n+](C)c5ccc([N+](=O)[O-])cc45)cc3[N+](=O)[O-])cc2)cc1.Cl
2. Cc1ccc(CC2(OCCN(C)C)CCC(C(C)(C)C)CC2)cc1.O=C(O)/C=C/C(=O)O (stereo not drawn)
3. CCN(CC)CCNc1ccc(C)c2sc3ccccc3c(=O)c12.Cl

Completion:
["−8.9", "−16.0", 30.3]
